Experiment: A CellTox Green Cytotoxicity Assay to monitor cytotoxicity in HepG2 cells - 16 hour (AID 1224876); also: nearly all actives have a fitted effect of over 45% in size
Details: CellTox Green fluorescence; series mostly up to 76.8 µM
Inconclusive results are not listed. Active and inactive are the calls of the source. Calls follow the shape of the dose curve; as a rule, active = well fitted activation curve with a large enough effect in the repeat runs; inconclusive = weak or mixed curves; inactive = flat fitted curve, though single readings scatter.
Labels: active, inactive

INSERT INTO results (molecule, class_name) VALUES
  ('Cc1ncc([N+](=O)[O-])n1CCO', 'inactive'),
  ('CC1(C)O[C@@H]2C[C@H]3[C@@H]4CCC5=CC(=O)C=C[C@]5(C)[C@@]4(F)[C@@H](O)C[C@]3(C)[C@]2(C(=O)CO)O1', 'inactive'),
  ('O=c1[nH]cc(F)c(=O)[nH]1', 'inactive'),
  ('C1=CC2C3C=CC(C3)C2C1 (configuration not stated)', 'inactive'),
  ('CC(=O)CCC(=O)O', 'inactive'),
  ('C/C=C/C=C/C(=O)O', 'inactive'),
  ('CN1[C@@H]2CC(OC(=O)[C@H](CO)c3ccccc3)C[C@H]1[C@@H]1O[C@@H]12 (some centres not stated)', 'inactive'),
  ('CNNCc1ccc(C(=O)NC(C)C)cc1', 'inactive'),
  ('CC(C)c1c(C(=O)Nc2ccccc2)c(-c2ccccc2)c(-c2ccc(F)cc2)n1CC[C@@H](O)C[C@@H](O)CC(=O)O', 'inactive'),
  ('CC/C(=C(\c1ccccc1)c1ccc(OCCN(C)C)cc1)c1ccccc1', 'active'),
  ('CCCCC1(COC(=O)CCC(=O)O)C(=O)N(c2ccccc2)N(c2ccccc2)C1=O', 'inactive'),
  ('O=C(O)CC(O)C(=O)O (configuration not stated)', 'inactive');

---

Molecular target: Glucocorticoid receptor (Homo sapiens)
Assay: qHTS assay to identify small molecule agonists of the glucocorticoid receptor (GR) signaling pathway (AID 720691); as to activation: % is scaled to controls: 0 for no effect and ±100 for the full control effect
Conditions: GR-bla HeLa, beta-lactamase reporter ratio, 18 h; series mostly up to 62.4 µM
Records with an inconclusive call do not appear. Calls of active or inactive are those of the source. Calls follow the shape of the dose curve; as a rule, active = well fitted activation curve with a large enough effect in the signal ratio in the repeat runs (not every such curve was filed as active); inconclusive = weak or mixed curves, or effect the other way; inactive = no such curve, though single readings can be large or run the other way; the % refers to the signal ratio.
Outcome codes: YES (active), NO (inactive)

INSERT INTO assay_data (compound, class_name) VALUES
  ('CN(N=O)C(=O)N[C@@H]1[C@@H](O)[C@H](O)[C@@H](CO)O[C@@H]1O', 'NO'),
  ('NS(=O)(=O)c1cc2c(cc1Cl)NCNS2(=O)=O', 'NO'),
  ('NC(=O)c1cccnc1', 'NO'),
  ('OC[C@H]1O[C@H](O[C@]2(CCl)O[C@H](CCl)[C@@H](O)[C@@H]2O)[C@H](O)[C@@H](O)[C@H]1Cl', 'NO'),
  ('CN(C)C(=S)SC(=S)N(C)C', 'YES'),
  ('O=C1NC(=O)C(c2ccccc2)(c2ccccc2)N1', 'NO'),
  ('NC(=O)n1c(O)c(C(=O)c2cccs2)c2cc(Cl)ccc21', 'NO'),
  ('CCCCOC(=O)c1ccc(O)cc1', 'NO'),
  ('Nc1ccc([N+](=O)[O-])cc1O', 'NO'),
  ('CCN(CC)C(=O)c1cccc(C)c1', 'NO'),
  ('O=CC(=O)c1ccccc1', 'NO'),
  ('COc1ccc(C(Cl)=C(c2ccc(OC)cc2)c2ccc(OC)cc2)cc1', 'NO'),
  ('C1=CC2C3C=CC(C3)C2C1 (stereo not drawn)', 'NO');

---

Experiment: qHTS assay to identify small molecule agonists of the AP-1 signaling pathway - cell viability counter screen (AID 1159525); also: nearly all actives have a fitted effect of over 55% in size
Conditions: ME-180 (cervical carcinoma) AP-1-bla cells viability, ATP luminescence, 5 h; series mostly up to 76.8 µM
Inconclusive results are not listed. Activity calls are given as the source filed them. Calls come from the whole dose curve.
Labels: active, inactive

INSERT INTO measurements (molecule, class_name) VALUES
  ('CC/C(=C(\c1ccccc1)c1ccc(OCCN(C)C)cc1)c1ccccc1', 'active'),
  ('CC1(C)O[C@@H]2C[C@H]3[C@@H]4CCC5=CC(=O)C=C[C@]5(C)[C@@]4(F)[C@@H](O)C[C@]3(C)[C@]2(C(=O)CO)O1', 'inactive'),
  ('CC(=O)CCC(=O)O', 'inactive'),
  ('O=C1c2c(O)cccc2Cc2cccc(O)c21', 'inactive'),
  ('CCN(CC)C(=O)c1cccc(C)c1', 'inactive'),
  ('COc1ccc(C(Cl)=C(c2ccc(OC)cc2)c2ccc(OC)cc2)cc1', 'inactive'),
  ('C/C=C/C=C/C(=O)O', 'inactive'),
  ('CCCCOC(=O)c1ccc(O)cc1', 'inactive'),
  ('Cc1cc(=O)oc2cc(O)ccc12', 'inactive'),
  ('Nc1ccc(S(N)(=O)=O)cc1', 'inactive'),
  ('CN(C)CCOC(C)(c1ccccc1)c1ccccn1 (stereo not drawn)', 'inactive'),
  ('CCCCC(CC)C(=O)O (stereo not drawn)', 'inactive'),
  ('CN(C)CCOC(c1ccccc1)c1ccccc1', 'inactive');

---

Assay: qHTS assay to identify small molecule antagonists of the TGF-beta/Smad signaling pathway - cell viability counter screen (AID 1346824); also: nearly all actives have a fitted effect of over 50% in size
Conditions: SBE-bla HEK293T viability, CellTiter-Glo luminescence; series mostly up to 76.8 µM
Results filed as inconclusive are left out. Activity calls are given as the source filed them. The call rests on the fitted dose curve; in most records, active means well fitted cell-killing curve with a large enough effect in the repeat runs; inconclusive means weak or mixed curves; inactive means flat fitted curve, though single readings scatter.
Labels: active, inactive

INSERT INTO measurements (compound, class_name) VALUES
  ('CC(O)(P(=O)(O)O)P(=O)(O)O', 'inactive'),
  ('NC(=O)c1cccnc1', 'inactive'),
  ('Cc1cc(C)nc(NS(=O)(=O)c2ccc(N)cc2)n1', 'inactive'),
  ('CC(C)C(=O)Nc1ccc([N+](=O)[O-])c(C(F)(F)F)c1', 'inactive'),
  ('Cn1c(=O)c2c(ncn2C)n(C)c1=O', 'inactive'),
  ('O=C(Nc1ncc([N+](=O)[O-])s1)c1cccs1', 'active'),
  ('CN[C@H]1CC[C@@H](c2ccc(Cl)c(Cl)c2)c2ccccc21', 'inactive'),
  ('O=C1c2c(O)cccc2Cc2cccc(O)c21', 'inactive'),
  ('CC(=O)Nc1c(I)c(NC(C)=O)c(I)c(C(=O)O)c1I', 'inactive'),
  ('O=C1O[C@H]([C@@H](O)CO)C(O)=C1O', 'inactive'),
  ('CN(N=O)C(=O)N[C@@H]1[C@@H](O)[C@H](O)[C@@H](CO)O[C@@H]1O', 'inactive'),
  ('CCCCCCc1ccc(O)cc1O', 'inactive'),
  ('O=C(O)CC(O)C(=O)O (stereo not drawn)', 'inactive');

---

Assay: qHTS assay to identify small molecule antagonists of the androgen receptor (AR) signaling pathway using the MDA cell line - cell viability counter screen (AID 743041; also: nearly all actives have a fitted effect of over 45% in size)
Conditions: MDA-kb2 viability, CellTiter-Fluor, 16 h, cells co-treated with R1881 androgen agonist; series mostly up to 70.3 µM
Results filed as inconclusive are left out. Activity calls are given as the source filed them. Calls follow the shape of the dose curve; as a rule, active = well fitted cell-killing curve with a large enough effect in the repeat runs; inconclusive = weak or mixed curves, or effect the other way; inactive = flat fitted curve, though single readings scatter.
Classes used: 1 (yes) for active, 0 (no) for inactive

INSERT INTO results (compound, class_name) VALUES
  ('COc1ccc2c(c1)c(CC(=O)O)c(C)n2C(=O)c1ccc(Cl)cc1', '0 (no)'),
  ('OC[C@H]1O[C@H](O[C@]2(CCl)O[C@H](CCl)[C@@H](O)[C@@H]2O)[C@H](O)[C@@H](O)[C@H]1Cl', '0 (no)'),
  ('C=C(C)C(=O)OCC(C)O (centres undefined)', '0 (no)'),
  ('Cc1cc(C)nc(NS(=O)(=O)c2ccc(N)cc2)n1', '0 (no)'),
  ('Nc1ccc([N+](=O)[O-])cc1O', '1 (yes)'),
  ('CCCCCCCC(=O)OCC(COC(=O)CCCCCCC)OC(=O)CCCCCCC', '0 (no)'),
  ('COc1cccc(O)c1O', '0 (no)'),
  ('CCCCC1(COC(=O)CCC(=O)O)C(=O)N(c2ccccc2)N(c2ccccc2)C1=O', '0 (no)'),
  ('O=c1[nH]cnc2c1ncn2[C@H]1CC[C@@H](CO)O1', '0 (no)'),
  ('C=CCc1ccc(O)c(OC)c1', '0 (no)'),
  ('CC(C)C(=O)Nc1ccc([N+](=O)[O-])c(C(F)(F)F)c1', '0 (no)'),
  ('Oc1ccccc1', '0 (no)'),
  ('C=C1CC[C@H](O)C/C1=C\C=C1/CCC[C@]2(C)[C@@H]([C@H](C)CCCC(C)C)CC[C@@H]12', '0 (no)'),
  ('NS(=O)(=O)c1cc2c(cc1Cl)NCNS2(=O)=O', '0 (no)'),
  ('CCN(Cc1c(F)cccc1Cl)c1c([N+](=O)[O-])cc(C(F)(F)F)cc1[N+](=O)[O-]', '0 (no)'),
  ('CN(C)CCOC(C)(c1ccccc1)c1ccccn1 (centres undefined)', '0 (no)'),
  ('O=C1O[C@H]([C@@H](O)CO)C(O)=C1O', '0 (no)'),
  ('CCc1nc(N)nc(N)c1-c1ccc(Cl)cc1', '0 (no)'),
  ('CN(N=O)C(=O)N[C@@H]1[C@@H](O)[C@H](O)[C@@H](CO)O[C@@H]1O', '0 (no)'),
  ('CC(=O)Nc1c(I)c(NC(C)=O)c(I)c(C(=O)O)c1I', '0 (no)'),
  ('Cc1ncc([N+](=O)[O-])n1C', '0 (no)'),
  ('NC(CO)(CO)CO', '0 (no)'),
  ('CCOc1ccc(NC(C)=O)cc1', '0 (no)'),
  ('O=C1NC(=O)C(c2ccccc2)(c2ccccc2)N1', '0 (no)'),
  ('NS(=O)(=O)O', '0 (no)'),
  ('O=C(O)c1ccccc1', '0 (no)'),
  ('C[C@](N)(Cc1ccc(O)c(O)c1)C(=O)O', '0 (no)'),
  ('Cc1cccc(C)c1', '0 (no)'),
  ('CCCc1cc(=O)[nH]c(=S)[nH]1', '0 (no)'),
  ('CCCCOC(=O)c1ccc(O)cc1', '0 (no)'),
  ('CCOC(N)=O', '0 (no)'),
  ('CCCCNC(=O)NS(=O)(=O)c1ccc(C)cc1', '0 (no)'),
  ('CN1CCc2cccc3c2[C@H]1Cc1ccc(O)c(O)c1-3', '0 (no)'),
  ('CS(=O)(=O)OCCCCOS(C)(=O)=O', '0 (no)');

Attribution: PubChem BioAssay (Tox21)
